Values were extracted from paper PMC2713172.

Biological target: CYP2C9 F114W/F476W double mutant (Homo sapiens, UniProt P11712, F114W/F476W)
Test: biochemical
result-type: Kd (µM)
Response body: numeric value in µM, unit text excluded.

Lab note: measured Kd of C[C@H](C(=O)O)c1ccc(-c2ccccc2)c(F)c1 [(S)-flurbiprofen] was 22.3

====

Biological target: wild-type CYP2C9 (Homo sapiens, UniProt P11712)
Details: human, pH 7.4
result-type: Km at 20 min (µM)
Response body: numeric value in µM, unit text excluded.

Lab note: measured Km at 20 min of C[C@H](C(=O)O)c1ccc(-c2ccccc2)c(F)c1 [(S)-flurbiprofen] was 22.9
